Source of measurements: patent US20240059691A1

Give measured IC50 for each item. Keep answers brief.
Target: Plasma Kallikrein (Homo sapiens (Human))
Sequence (P03952 391-638): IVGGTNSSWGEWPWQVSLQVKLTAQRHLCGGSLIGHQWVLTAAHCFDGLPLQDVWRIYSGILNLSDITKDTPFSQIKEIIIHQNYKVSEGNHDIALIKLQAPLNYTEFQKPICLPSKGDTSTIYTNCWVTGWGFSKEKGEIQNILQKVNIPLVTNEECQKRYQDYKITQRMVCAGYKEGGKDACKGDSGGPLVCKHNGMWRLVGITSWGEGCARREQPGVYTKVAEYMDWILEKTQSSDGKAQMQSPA
Sequence (P03952 20-390 partner): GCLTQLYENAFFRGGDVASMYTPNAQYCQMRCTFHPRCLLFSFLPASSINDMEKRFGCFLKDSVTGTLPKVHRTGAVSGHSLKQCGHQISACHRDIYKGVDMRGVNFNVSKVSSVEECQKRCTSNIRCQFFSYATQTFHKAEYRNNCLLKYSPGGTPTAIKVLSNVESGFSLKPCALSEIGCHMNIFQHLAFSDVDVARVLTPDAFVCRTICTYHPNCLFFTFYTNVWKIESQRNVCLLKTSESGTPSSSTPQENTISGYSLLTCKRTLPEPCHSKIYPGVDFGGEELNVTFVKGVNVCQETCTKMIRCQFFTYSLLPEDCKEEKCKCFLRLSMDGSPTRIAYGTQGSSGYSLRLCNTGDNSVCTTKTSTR
Test: Determination of related protease inhibition: Plasma Kallikrein (fluorogenic substrate at Km)
Conditions: 25° C., read-out: IC50 (human PKal)
Source text: Determination of Related Protease Inhibition […]

Quick note, IC50 for Nc1nccc2c(NCc3ccnc(OCC4CCn5ccnc5C4)c3)cccc12 (single isomer, unassigned) [Example 4431] landed at > 4 µM

Input COc1cc(NCc2ccnc(OCC3CCN(C)CC3)c2)cc2ccncc12 [Example 4462] . Output IC50: > 100 µM

# IC50 (molecule: CN1CCC(CNc2ccc(CNc3cc(CO)c4cnccc4c3)cn2)CC1 [Example 1211] ) is 10 to 40 µM

Record summary for COc1ccc(NCc2ccnc(OCC3CCN(C)CC3)c2)c2ccnc(N)c12 [Example 4470] : reported IC50 = > 40 µM

Form field IC50, entry CN1CCC(OCc2ccc(CNc3cccc4c(N)nccc34)c(F)c2)CC1 [Example 2197] : > 20 µM

The reported IC50 of the molecule CN1CC2C(COc3cc(CNc4ccc5c(N)nccc5c4)ccn3)C2C1 (centres unmarked) [Example 4269] was 3 to 10 µM

Memo: CC(C)N1C[C@H]2C[C@@H]1CN2Cc1cc(CNc2cccc3c(N)nccc23)ccn1 [Example 4294] , reported IC50: > 40 µM

Just so you know, measured IC50 for CN1CCC(COc2cc(CNc3cccc4[nH]nc(Cl)c34)ccn2)CC1 [Example 4454] came out at > 100 µM

---

Give measured IC50 for each item. Keep answers brief.

UniProt:P03951 assay, compound Nc1ncc(Cl)c2cc(NCc3ccnc(OCC4CCn5ccnc5C4)c3)ccc12 (single isomer, unassigned) [Example 4438] , recorded IC50 = > 40 µM

Test item Nc1nccc2cc(NCc3ccc(OCC4CCn5ccnc5C4)nc3)ccc12 (stereo not shown) [Example 1006] ; UniProt:P03951; reported IC50 was > 40 µM

I looked up CN1CCC(COc2cc(CNc3ccc4c(N)ncc(Cl)c4c3)ccn2)CC1 [Example 4268] and its IC50 for UniProt:P03951 was > 40 µM

Field IC50 (system: UniProt:P03951) for entry CCN1CCC(OCc2ccc(CNc3cccc4c(N)nccc34)c(F)c2)CC1 [Example 2201] = > 20 µM

Form field, IC50 with UniProt:P03951, item CN1CCC(COc2ccc(CNc3cccc4c(N)nccc34)cn2)CC1 [Example 1009] : > 40 µM

Observed IC50, UniProt:P03951, Nc1nccc2cc(NCc3ccc(COC4CCN(C5CC5)CC4)cc3)ccc12 [Example 2195] : > 40 µM

Entry CCN1CCC(OCc2ccc(CNc3ccc4c(N)nccc4c3)c(F)c2)CC1 [Example 2202] , UniProt:P03951 data, IC50 value: > 20 µM

IC50 on UniProt:P03951 for CN1CCC(COc2ccc(CNc3ccc4c(N)nccc4c3)cn2)CC1 [Example 1005] is > 40 µM

Measured IC50 for this entry CN1CCC(COc2cc(CNc3cccc4[nH]nc(Cl)c34)ccn2)CC1 [Example 4454] on UniProt:P03951: > 40 µM

Entry CC(C)N1C[C@@H]2C[C@H]1CN2CCc1ccc(CNc2cccc3c(N)nccc23)c(F)c1 (stereo in doubt) [Example 2212] : IC50 on UniProt:P03951 = > 40 µM

Fill in: UniProt:P03951 IC50 for CC(C)N1CC2(CN(Cc3ccc(CNc4ccc5c(N)nccc5c4)c(F)c3)C2)C1 [Example 1037] = > 40 µM

Sample CN1CCC(COc2ccc(CNc3ccc4cnccc4c3)cn2)CC1 [Example 1008] , system: UniProt:P03951. Its IC50 is > 20 µM

The recorded IC50 with UniProt:P03951 for CN1CCC(COc2cc(CNc3ccc4c(N)nccc4c3)ccn2)CC1 [Example 4261] was > 20 µM

Considering CN1CCC(OCc2ccc(CNc3ccc4c(N)nccc4c3)c(Cl)c2)CC1 [Example 2192] , its IC50 with UniProt:P03951 was recorded as > 40 µM

The observed IC50 for CN1CCC(OCc2ccc(CNc3ccc4c(N)nccc4c3)cc2)C(F)(F)C1 (stereo not shown) [Example 2194] when tested with UniProt:P03951 stands at > 40 µM

With UniProt:P03951 as the test system, Nc1ncc(Cl)c2cc(NCc3ccnc(N4CCn5ccnc5C4)c3)ccc12 [Example 4437] showed IC50 of > 40 µM

Fill in: UniProt:P03951 IC50 for CN1CCC(OCc2ccc(CNc3cccc4c(N)nccc34)cc2)CC1 [Example 2186] = > 40 µM

Bench note, UniProt:P03951: CCN1CCC(COc2ccc(CNc3ccc4c(N)nccc4c3)cn2)CC1 [Example 1010] , IC50 reads > 40 µM

Bench note, UniProt:P03951: entry CN1CCC(CNc2ccc(CNc3ccnc4[nH]ccc34)cn2)CC1 [Example 1197] , its IC50 = > 40 µM

Bench note, UniProt:P03951: CN1CCC(COc2cc(CNc3cc4ccnc(N)c4cn3)ccn2)CC1 [Example 4271] , IC50 reads > 40 µM

Readout IC50 for Cc1cn2c(n1)CC(COc1cc(CNc3cccc4c(N)nccc34)ccn1)CC2 (single isomer, unassigned) [Example 4446] , test system UniProt:P03951, was 10 to 40 µM

Record CN1CCC(OCc2ccc(CNc3cccc4c(N)nccc34)c(F)c2)CC1 [Example 2197] / UniProt:P03951, IC50 recorded as > 20 µM

Record for CN1CCC(CCn2cc(CNc3ccc4c(N)nccc4c3)cn2)CC1 [Example 3254] under target or system UniProt:P03951: IC50 reported as > 20 µM

The reported IC50 value, UniProt:P03951, for CC(C)N1C[C@H]2C[C@@H]1CN2CCc1ccc(CNc2cccc3c(N)nccc23)c(F)c1 (stereo in doubt) [Example 2213] reads > 40 µM

Short answer on UniProt:P03951 for Nc1nccc2c(NCc3ccnc(OCC4CCn5ccnc5C4)c3)cccc12 (stereo not shown) [Example 4298] , IC50: 10 to 40 µM
